Values compiled from PubChem BioAssay (NCI).

Give TGI for every item shown.
System: SN12C renal
PROTOCOL_SUMMARY: NCI tumour cell line growth inhibition, 48 h
Numbers only, in µM.

Hi, could you look up TGI for each item in my list?
1. O=C(NO)c1cnc(N2CCN(S(=O)(=O)c3ccc4ccccc4c3)CC2)nc1
2. N#CC(C#N)=Cc1ccc(-c2ccc(-c3nc4ccccc4o3)cc2)o1
3. CCOc1ccc2c(c1)NC(=O)C(C1OC(c3ccccc3)=CC1=O)S2 (centres undefined)
4. CC1OC(OC2C(O[C@@H]3C[C@@H]4CC[C@@H]5[C@H](CC[C@]6(C)[C@@H]7[C@H](C[C@@H]56)O[C@]5(CC[C@@H](C)CO5)[C@H]7C)[C@@]4(C)C[C@H]3O)OC(CO)C(OC3OC(CO)C(O)C(O)C3O)C2O)C(O)C(O)C1O (some centres undefined)

a:
1: 13.2; 2: 16.5; 3: 77.9; 4: 3.05

====

System: HS 578T breast
PROTOCOL_SUMMARY: NCI tumour cell line growth inhibition, 48 h
Where a SMILES comes first, the peptide text is derived from it. The star is where a group is joined. Boc = CC(C)(C)OC(=O)*
PROPERTY_NAME: TGI (µM)
One number for each entry, in µM.

Consider the worked cases shown below.
| COMPOUND | OUTPUT_UNIT | TGI |
| --- | --- | --- |
| CN(NC(=O)CC(=O)NN(C)C(=S)c1ccc(Cl)cc1)C(=S)c1ccc(Cl)cc1 | µM | 48.7 |
| C[C@@H](Oc1cc(-c2cnn(C3CC4(CCCNC4)C3)c2)cnc1N)c1c(Cl)ccc(F)c1Cl (stereo not given in full) | µM | 4.47 |
| COc1cccc2c1C(=O)c1c(O)c3c(c(O)c1C2=O)C[C@@](O)(/C(C)=N/NC(=O)c1ccc(Cl)c(Cl)c1)C[C@@H]3OC1CC(N)C(O)C(C)O1 (stereo not given in full) | µM | 3.18 |
| CCS/C(Nc1ccccc1)=C(\C#N)C(=O)N/N=C/c1ccc(Cl)cc1Cl | µM | 98.7 |
| CNCCOc1nc2c3cnccc3cc(-c3cc(OC)c(OC)c(OC)c3)c2c2ccncc12 | µM | 0.747 |
| CCCCCc1c(C)[nH]c(/C=c2\[nH]/c(=C3/C=c4ccccc4=N3)cc2OC)c1C | µM | 0.883 |

Hi, could you look up TGI for each item in my list?
1. O=[N+]([O-])c1ccc(N2N=C(c3ccc4ccccc4c3O)CC2c2ccc(Cl)cc2Cl)c([N+](=O)[O-])c1 (stereo not given)
2. COc1cccc(Nc2nccc(Nc3ccc4[nH]ncc4c3)n2)c1
3. CC(=O)OCC(=O)C1(O)C(C)CC2C3C=C(C)C4=Cc5c(cnn5-c5ccccc5)CC4(C)C3C(O)CC21C (stereo not given)
4. COc1ccc2c(c1)CC[C@@H]1[C@@H]2CC[C@]2(C)[C@@H](O)/C(=C/c3ccncc3)C[C@@H]12
5. CCOC(=O)C(CC(C)C)NC(=O)C(Cc1ccccc1)NC(=O)CNC(=O)OC(C)(C)C (stereo not drawn) (Boc-Gly-Phe-Leu-OEt; configuration not given here)
6. CSc1ccc(C2=NN(C(=O)c3ccc(N)cc3)C(c3ccc(F)cc3)C2)cc1 (stereo not given)
7. c1ccc2nc3cc4c(cc3nc2c1)NC12CCCCC1CC1=C(CCCC1)N42 (stereo not given)
8. CCCCCCCCCC(=O)CC(=O)c1c(O)cc(O)cc1O

a:
95.3
4.61
4.75
32
96
55.8
8.04
44.9
